Test system: HCT-116 colon
assay.comment: NCI-60 one-dose screen, 48 h
cond: 10 µM unless noted
This is part of a sample that, as a whole, favours compounds with a hit. Of some 83,000 tested, about 20% had one in any assay. Active and inactive are the calls of the source. How the source made its calls: active means growth percent below 10; inactive means the rest.
Bench note: report the call from active, inactive

| molecule | target | class.label |
| --- | --- | --- |
| COC(=O)c1cc(C(=O)CBr)n2c1ccc1c3ccccc3ccc12 | HCT-116 colon | inactive |
| O=C(Nc1ccc(Cl)c(C(F)(F)F)c1)N1CCN(c2cc(-c3cn(-c4ccccc4)nc3-c3cccc(O)c3)ccn2)CC1 | HCT-116 colon | active |
| COc1ccc2[nH]cc(-c3cc4nc(-c5cn(C)c6ncccc56)cc(N)n4n3)c2c1 | HCT-116 colon | active |
| O=C(NN1C(=O)/C(=C/C=C/c2ccc([N+](=O)[O-])o2)SC1=S)c1ccc(O)cc1 | HCT-116 colon | active |
| Cc1ccc(C(=O)Nc2cc(-c3ccccc3)cc(C(F)(F)F)c2)cc1C#Cc1cnc2cccnn12 | HCT-116 colon | inactive |
| CCc1ccc(SC2c3cc(OC)ccc3Oc3nc(N)c(C#N)c(N)c32)cc1 (centres undefined) | HCT-116 colon | active |
| Cn1cc(-c2cc(N)n3nc(-c4c[nH]c5ccc(F)cc45)cc3n2)c2cccnc21 | HCT-116 colon | active |
| COC(=O)c1cc(C(=O)C(F)(F)F)n2c3ccccc3c3ccccc3c12 | HCT-116 colon | inactive |
| COc1cccc(C(N)=Nc2ccc(OCCCCCCCCn3cncn3)cc2)c1 | HCT-116 colon | inactive |
| C=CC(=O)N1CCN(c2ccc3nc4c(nc3c2C(F)(F)F)C(=O)c2ncccc2C4=O)CC1 | HCT-116 colon | active |

// outcome(item) with item = `CCc1ccccc1NC(=O)N/C(N)=N/c1nc2ccccc2s1`
active

// outcome(item) with item = `O=C(NN1C(=O)/C(=C/C=C/c2ccc([N+](=O)[O-])o2)SC1=S)c1ccncc1`
active

// outcome(item) with item = `CC(C)(C)OC(=O)N1C/C(=C\c2ccc(F)cc2)C(=O)/C(=C/c2ccc(F)cc2)C1`
active

// outcome(item) with item = COc1ccc2c(c1)C(Sc1ccc(F)cc1)c1c(nc(N)c(C#N)c1N)O2 (centres undefined)
inactive

// outcome(item) with item = `Cc1cccc(NCC(=O)N2CCN(c3ncnc4c3cnn4-c3ccccc3)CC2)c1`
inactive

// outcome(item) with item = `CN1CCN(CCS(=O)(=O)Nc2cc(-c3ccc4ncnc(Nc5ccc(F)c(Cl)c5)c4c3)cnc2Cl)CC1`
inactive

// outcome(item) with item = `COc1ccc2[nH]c(O)c(N=NC(=O)c3ccc4nc(-c5ccc(Cl)cc5)[nH]c4c3)c2c1`
inactive

// outcome(item) with item = `N#Cc1ccc(C(=O)CSc2nc3c(c(Nc4ccc(S(N)(=O)=O)cc4)n2)CCC3)cc1`
inactive

// outcome(item) with item = `C/C(=N\Nc1ccc(S(N)(=O)=O)cc1)c1cnn(-c2cc(=O)[nH]c3ccc(Br)cc23)c1C`
inactive

// outcome(item) with item = `O=C1Nc2cc(-c3ccc(NS(=O)(=O)c4ccc(F)c(Cl)c4)cc3)ccc2/C1=C/c1ccc[nH]1`
inactive

// outcome(item) with item = `Nc1nn2c(-c3cc4cc(Br)ccc4oc3=O)ccnc2c1N=Nc1ccc(S(N)(=O)=O)cc1`
inactive

// outcome(item) with item = `COC(=O)c1cc(C(=O)C(C)(C)C)n2c3ccccc3c3ccccc3c12`
inactive

// outcome(item) with item = `O=C(Nc1ccc(S(=O)(=O)N2CCCCC2)cc1)C(Cl)Cl`
inactive

// outcome(item) with item = `N#Cc1c(-c2ccc(F)cc2)nc(SCc2ccc(F)cc2)nc1N1CCNCC1`
active

// outcome(item) with item = `Cc1nn(-c2ccccc2)c2ncn(CC(=O)N/N=C/c3ccccc3O)c(=O)c12`
inactive

// outcome(item) with item = `NC(=Nc1ccc(OCCCCCCCCn2cnnn2)cc1)c1ccccc1`
inactive

// outcome(item) with item = `O=C(N/N=C/c1c[nH]c2ccccc12)Nc1ccccc1Cl`
active

====

Entries and their growth values follow.
System: HOP-92 NSCLC
assay.comment: NCI-60 one-dose screen, 48 h (100 = growth as untreated, 0 = no growth, -100 = all killed)
cond: 10 µM unless noted
Compounds without any hit were thinned out: in the full panel of roughly 83,000, 20% have a hit.
Numbers only; they are read as %.

Check out these entries, answers already filled in.
| compound | growth [%] |
| --- | --- |
| Cn1cc(Nc2ncnc(-c3ccc(N4CCCC4)c(C#N)c3)n2)cn1 | 97.6 |
| COc1cc(/C=C/C(=O)c2cnn(-c3cc(=O)[nH]c4ccc(Cl)cc34)c2C)cc(OC)c1OC | -11.9 |
| COc1cc(/C=N/NC(=O)c2ccc(OCc3nc4ccc(Cl)cc4[nH]3)cc2)cc(OC)c1OC | 118 |
| O=C(NNC(=S)NC(=O)c1ccccc1)c1ccc(OCc2nc3ccc(Cl)cc3[nH]2)cc1 | -10.8 |
| Cc1ccc(NC(=O)N/N=C/c2c[nH]c3ccccc23)c(C)c1 | 16.3 |
| CCOc1ccccc1NC(=O)N/C(N)=N/c1nc2ccccc2s1 | -13.4 |
| O=C(Cn1c(-c2ccccc2)nc2ccccc21)N=Nc1c(O)[nH]c2ccc(Cl)cc12 | -41.7 |
| COc1cc(NC(=O)C(C)C)ccc1C(=O)NC(=S)Nc1ccc(S(N)(=O)=O)cc1 | 78 |

For reference, reported growth for `CN1CCN(C(=O)Oc2cc3c(c4ccccc24)[C@H](CCl)CN3C(=O)c2cc3cc(OCCCN4CCC4)ccc3[nH]2)[C@@H]2CSSC[C@H]21` stands at -10

For reference, reported growth for `CS(=O)(=O)Nc1cc(-c2ccc3ncnc(N4CCc5cc(F)c(Cl)cc54)c3c2)cnc1Cl` stands at -20.7

For reference, reported growth for `Cc1ccc(/C=C/C(=O)c2ccc(S(=O)(=O)NCCNc3nc(N(C)C)nc(N4CCOCC4)n3)cc2)cc1` stands at 93.2

====

System: SK-MEL-5 melanoma
assay.comment: NCI-60 one-dose screen, 48 h (100 = growth as untreated, 0 = no growth, -100 = all killed)
cond: 10 µM unless noted
The panel holds about 83,000 compounds, 20% with a hit somewhere; the sample as a whole holds those more often.
Could you please classify the records by growth using these ranges: bottom (below 20%), middle (20% to below 60%), top (60% or more)

Here's what some known entries look like.
| compound | class.label |
| --- | --- |
| COC(=O)c1c(C(=O)OC)c2ccc3c4ccccc4ccc3n2c1C(=O)C(C)Br (centres undefined) | middle |
| Cc1ccc(C(=O)Nc2ccc(-n3ccnc3)c(C(F)(F)F)c2)cc1C#Cc1cnc2cccnn12 | bottom |
| N#CC1=C(c2ccco2)Nc2c(c(-c3ccccc3)nn2-c2ccccc2)C12C(=O)Nc1ccc(Cl)cc12 (centres undefined) | middle |
| CCc1ccccc1NC(=O)N/C(N)=N/c1nc2ccccc2s1 | bottom |
| C[C@H](NC(=O)c1ccc2c(-c3ccc(C(F)(F)F)cc3)cccc2c1)c1ccccn1 | middle |

The entry to classify is `O=C1c2cccc3c(N4CCN(Cc5ccccc5)CC4)ccc(c23)C(=O)N1c1cccc(-c2nn(-c3ccccc3)cc2-c2nc3ccccc3s2)c1` ; which class holds it?
top

The entry to classify is `Cc1ccc2nc(NC(=O)Nc3cccc(Cl)c3)sc2c1` ; which class holds it?
top

====

Test system: DU-145 prostate
assay.comment: NCI-60 one-dose screen, 48 h (100 = growth as untreated, 0 = no growth, -100 = all killed)
cond: 10 µM unless noted
About 83,000 compounds went through this panel and 20% of them were active in at least one assay; those are over-represented in the sample as a whole. Calls of active or inactive are those of the source. How the source made its calls: active means growth percent below 10; inactive means the rest.
measure.name: growth

Check out these entries, answers already filled in.
| compound | measured.result |
| --- | --- |
| COc1cc(C2CC(c3ccc(Cl)cc3)=Nc3c(N)nc(N)nc3N2)ccc1Oc1nc(Nc2ccc(F)cc2)nc(N(C)C)n1 (centres undefined) | 60% (inactive) |
| COc1cccc(NC(=O)c2ccc(NC(=O)CCl)s2)c1 | 88.1% (inactive) |
| O=C(N/N=C/c1ccc(Cl)o1)c1[nH]c2ccc(Br)cc2c1-c1ccccc1 | -49.1% (active) |
| Cc1cccc(-c2ccccc2Oc2ccc3nnc(Cl)n3n2)c1 | 111% (inactive) |
| COc1ccc2[nH]c(=O)cc(-n3ncc(C(=O)/C=C/c4cc(OC)c(OC)c(OC)c4)c3C)c2c1 | -2.23% (active) |
| CN(C)CCCc1ccc(Nc2cnn(C)c(=O)c2Cl)cc1 | 116% (inactive) |

Please find the next compound below.
DU-145 prostate data for O=C(c1ccc(O)cc1)C1[C@H](c2ccc(Cl)cc2)[C@@H](c2ccccc2)NC12C(=O)Nc1ccc(Br)cc12 (some centres undefined) ; its growth: 13.4% (inactive)
